Source listed as the supplement of paper PMC6757056.

B1: library; a variant is named by its letters at N, in order (parent)
chain: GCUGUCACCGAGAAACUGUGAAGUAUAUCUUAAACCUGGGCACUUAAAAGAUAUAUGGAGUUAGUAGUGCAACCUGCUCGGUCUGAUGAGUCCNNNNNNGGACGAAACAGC

variants of: B1; experiment: normalized RNA/DNA level with ligand (relative to sTRSVctl = 100) (log10 (% of sTRSVctl)); HEK293T; ligand: cyclic di-GMP (c-di-GMP-II aptamer); ligand concentration (+) RNA-Seq: 1 mM; higher = less ribozyme self-cleavage, higher mRNA level; settings: reporter: mCherry (pCS4076), ligand present: yes
Measured normalized RNA/DNA level with ligand (log10) accompanies every entry in the list below.
// keep it numeric: no unit symbol after the value

// field: normalized RNA/DNA level with ligand (log10); key: "GCCCGC" ; value = 1.86

// field: normalized RNA/DNA level with ligand (log10); key: "GUGGAA" ; value = 1.63

// field: normalized RNA/DNA level with ligand (log10); key: "GUCUCC" ; value = 1.89

// field: normalized RNA/DNA level with ligand (log10); key: "CGUGCA" ; value = 1.79
